molecular target: mIgCLL6-2, CLL-derived monoclonal Igγ1 antibody of clonotype CLL6-2; test: dose-dependent binding with Scatchard plot analysis
pKd: −log10 of the molar value.
Parameter: pKd

- Binder: "CTTVIPERC [pCLL6-2 mimotope]"
  Parameter: "pKd"
  Quantitative result: 7.64
